src = ChEMBL document CHEMBL1201862

# Tested on: A549
# assay details: NCI tumour cell line growth inhibition, 48 h
Activity calls are given as the source filed them. Cut-off read from the data, not from the text of the source: active = GI50 up to about 1.1 µM and inactive = higher.
Known GI50 of a selection of compounds

-- ask Given C[C@]12CC[C@H]3[C@@H](CCC4=CC(=O)CC[C@@]43C)[C@@H]1CC[C@@H]2C(=O)COS(=O)(=O)c1ccc(Br)cc1 , respond with its GI50.
-- reply 18.7 µM (inactive)

----------
# System: A549
# assay details: NCI tumour cell line growth inhibition, 48 h
Calls of active or inactive are those of the source. No stated cut-off is given here; in the data, active = GI50 up to about 1.1 µM and inactive = higher.
property label: GI50

Example cases with answers are listed next.
compound | target of assay | GI50
COc1cc(C2C(C(=O)O)=C(CO)Oc3cc4c(cc32)OCO4)cc(OC)c1O (centres undefined) | A549 | > 100 µM (inactive)
COc1ccccc1-c1cc(=O)c2ccccc2[nH]1 | A549 | 54.3 µM (inactive)
C(/C=N/N=C1NCCN1)=N\N=C1NCCN1 | A549 | > 100 µM (inactive)
O=C(CSC(=S)N1CCOCC1)Nc1nc2c(s1)CCCC2 | A549 | > 100 µM (inactive)
CN(C)/C=N/Cc1ccc2c(c1)OCO2 | A549 | > 100 µM (inactive)
O=[N+]([O-])/C(C(Cl)=C(Cl)Cl)=C1\NCCO1 | A549 | > 100 µM (inactive)

-- ask Note GI50 for the compound shown: O=C(O)[C@@H]1CSCN1C(=O)[C@@H]1CCC(=S)N1
-- reply > 100 µM (inactive)

-- ask Tell me GI50 reported for O=c1ccc2ccc(O)c3c4c(O)ccc5ccc(=O)c(c1c23)c54
-- reply 2.95 µM (inactive)
